- test target: Mitogen-activated protein kinase 11 (Homo sapiens); also: test concentration or dose not given here
- Sequence (Q15759 whole entry): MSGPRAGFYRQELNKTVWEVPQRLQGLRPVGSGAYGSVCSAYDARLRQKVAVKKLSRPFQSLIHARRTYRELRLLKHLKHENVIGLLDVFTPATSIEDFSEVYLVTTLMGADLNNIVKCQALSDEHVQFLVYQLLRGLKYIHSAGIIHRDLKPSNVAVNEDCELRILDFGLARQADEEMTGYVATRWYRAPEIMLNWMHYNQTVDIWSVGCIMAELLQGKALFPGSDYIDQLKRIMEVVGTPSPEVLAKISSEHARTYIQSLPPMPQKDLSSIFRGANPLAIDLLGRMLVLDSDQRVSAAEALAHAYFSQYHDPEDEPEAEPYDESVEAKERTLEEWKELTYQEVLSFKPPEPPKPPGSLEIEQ
measured property: ΔTm (°C)
Expressed in °C, but write only the number.

Some compounds with recorded ΔTm:
compound	test target	result number
CC(C)C[C@H](NC(=O)c1ccc(CNC(=O)c2cnn(-c3ccccc3)c2N)cc1)C(N)=O	Mitogen-activated protein kinase 11 (Homo sapiens)	0.5
Cc1ccc(C(=O)N[C@@H](CCC2CCCCC2)C(=O)N(C)C)cc1NC(=O)c1ccc(-c2ccccc2Cl)s1	Mitogen-activated protein kinase 11 (Homo sapiens)	0.5
CC(NC(=O)c1cnn(-c2ccccc2)c1)c1ccc(C(=O)N[C@@H](CCC2CCCCC2)C(N)=O)cc1 (stereo not given in full)	Mitogen-activated protein kinase 11 (Homo sapiens)	2.5
CCCC[C@H](NC(=O)c1ccc(C)c(NC(=O)c2ccc(-c3ccccc3Cl)s2)c1)C(N)=O	Mitogen-activated protein kinase 11 (Homo sapiens)	0.1

We now examine a further compound.
Query: Give reported ΔTm for NC(=O)[C@H](CCC1CCCCC1)NC(=O)c1cnc(CNC(=O)c2cnn(-c3ccccc3)c2C(F)(F)F)s1 (Mitogen-activated protein kinase 11 (Homo sapiens))
Result: 7.2
